system: PANC-1; assay: Inhibition of cells growth by colorimetric assay (SRB); settings: Homo sapiens, PANC-1, 48 h, read-out: PANC-1 TGI
Listed here: items and their measured log10 IC (TGI).
Please keep in mind that the values are log10 of IC (TGI) expressed in nM.

# count of solved cases: 3
| compound | log10 IC (TGI) |
| --- | --- |
| C=CCN1[C@@H]2c3c(cc(C)c(OC)c3O)C[C@H]1[C@H](C#N)N1C2[C@@H]2SC[C@]3(NCCc4cc(O)c(OC)cc43)C(=O)OC[C@H]1c1c3c(c(C)c(OC(=O)CCCCCCC)c12)OCO3 (stereo partly drawn) | 4.05 |
| COc1c(C)cc2c(c1O)[C@H]1N[C@@H](C2)[C@H](C#N)N2C1[C@@H]1SCC(=O)C(=O)OC[C@H]2c2c3c(c(C)c(OC(C)=O)c21)OCO3 (stereo partly drawn) | 1.06 |
| COc1cc2c(cc1O)CCN[C@]21CS[C@@H]2c3c(OC(C)=O)c(C)c4c(c3[C@H](CNC1=O)N1C2[C@H]2c3c(cc(C)c(OC)c3O)CC([C@@H]1O)N2C)OCO4 (stereo partly drawn) | 3.43 |

Quick note, log10 IC (TGI) for C=CCN1[C@@H]2c3c(cc(C)c(OC)c3OC(=O)OC(C)(C)C)C[C@H]1[C@H](C#N)N1C2[C@@H]2SC[C@]3(NCCc4cc(OC(=O)OC(C)(C)C)c(OC)cc43)C(=O)OC[C@H]1c1c3c(c(C)c(OC(C)=O)c12)OCO3 (stereo partly drawn) landed at 3.09

Entry C=CCN1[C@@H]2c3c(cc(C)c(OC)c3O)C[C@H]1[C@H](C#N)N1C2[C@@H]2SC[C@]3(NCCc4cc(OC(=O)OC(C)(C)C)c(OC)cc43)C(=O)OC[C@H]1c1c3c(c(C)c(OC(C)=O)c12)OCO3 (stereo partly drawn) , log10 IC (TGI) reported as 2.54

---

Tested on: PANC-1
Assay: Inhibition of cells growth by colorimetric assay (SRB)
Settings: Homo sapiens, PANC-1, 48 h, read-out: PANC-1 TGI
Protocol: This form of the assay employs 96 well cell culture microplates of 9 mm diameter (Faircloth, 1988; Mosmann, 1983). Most of the cell lines are obtained from American Type Culture Collection (ATCC) derived from different human cancer types. […] The values for mean +/− SD of data from triplicate wells are calculated. Some parameters for cellular responses can be calculated: GI=growth inhibition, TGI=total growth inhibition (cytostatic effect) and LC=cell killing (cytotoxic effect).
test_readout: IC (TGI)

Use the examples below as a reference point.
| compound | IC (TGI) |
| --- | --- |
| C=CCN1[C@@H]2c3c(cc(C)c(OC)c3O)C[C@H]1[C@H](C#N)N1C2[C@@H]2SC[C@]3(NCCc4cc(OC(=O)OC(C)(C)C)c(OC)cc43)C(=O)OC[C@H]1c1c3c(c(C)c(OC(=O)/C=C/c4ccccc4)c12)OCO3 (stereo partly shown) | 10200 nM |
| CCCCCCCC(=O)Oc1c(C)c2c(c3c1[C@H]1SC[C@]4(NCCc5cc(O)c(OC)cc54)C(=O)OC[C@@H]3N3C1[C@@H]1N[C@@H](Cc4cc(C)c(OC)c(O)c41)[C@@H]3O)OCO2 (stereo partly shown) | 64.8 nM |
| C=CCN1[C@@H]2c3c(cc(C)c(OC)c3O)C[C@H]1[C@H](O)N1C2[C@@H]2SCC(NC(C)=O)C(=O)OC[C@H]1c1c3c(c(C)c(OC(C)=O)c12)OCO3 (stereo partly shown) | 100 nM |

Next compound, IC (TGI) to be filled in.
IC (TGI) value, target or system PANC-1, for COC1=C(C)C(=O)C2=C(C1=O)[C@@H]1C3[C@@H]4SC[C@]5(NCCc6c5[nH]c5ccccc65)C(=O)OC[C@@H](c5c6c(c(C)c(OC(C)=O)c54)OCO6)N3[C@@H](O)[C@H](C2)N1C (stereo partly shown) : 957 nM
